Experiment: Absolute oral bioavailability (oral/IV) in Beagle dogs
Type: in vivo
Details: beagle, dog, in vivo
bioavailability reference

Ask: Consider the compound COc1ccc2[nH]c3c(c2c1)CCN1C(=O)CCC(c2ccccc2)=C31 [Example 4] and give its measured bioavailability.
Reply: > 20%

Others:
Ask: Endpoint output: bioavailability of CCC1CCC(=O)N2CCc3c([nH]c4ccc(OC)cc34)C12 (stereo not drawn) [Example 8] . Value?
Reply: 100%

Ask: Requested field: bioavailability. Item: CCC1=C2c3[nH]c4ccc(OC)cc4c3CCN2C(=O)CC1 [Example 1]
Reply: > 35%

====

Hydrolysis rate (%) pH=2 values, listed per item
Experiment: Stability in acidic medium (hydrolysis of cycle A in pH buffers, HPLC)
Format: physicochemical
Details: pH=2 buffer, 30 µM in 5 ml, stirred 15 minutes at 37°C
Reply with just the number (in %).

Check out these entries, answers already filled in.
Ask: May I ask what Hydrolysis rate (%) pH=2 has been recorded for COc1ccc2[nH]c3c(c2c1)CCN1C(=O)CCC(c2ccccc2)=C31 ?
Reply: 0

Ask: Quick check: Hydrolysis rate (%) pH=2 of COc1ccc2[nH]c3c(c2c1)CCN1C(=S)CCC(c2ccccc2)=C31 ?
Reply: 27.0

Ask: So what does the record say about Hydrolysis rate (%) pH=2 for COc1ccc2[nH]c3c(c2c1)CCN1C(=O)CCC=C31 [EXAMPLE A, reference compound] ?
Reply: 100

Ask: Sample CCC1CCC(=O)N2CCc3c([nH]c4ccc(OC)cc34)C12 (stereo not shown) — what was its Hydrolysis rate (%) pH=2?
Reply: 0

Ask: Sample CCC1=C2c3[nH]c4ccc(OC)cc4c3CCN2C(=O)CC1 — what was its Hydrolysis rate (%) pH=2?
Reply: 14.5

Further cases:
Ask: Query (compound): COc1ccc2[nH]c3c(c2c1)CCN1C(=O)CCCC31 (stereo not shown) [EXAMPLE B, reference compound] ; field requested: Hydrolysis rate (%) pH=2
Reply: 95

Ask: Query (compound): CCC1=C2c3[nH]c4ccc(OC)cc4c3CCN2C(=S)CC1 ; field requested: Hydrolysis rate (%) pH=2
Reply: 13.0
